Assay: blood plasma half life after oral administration
Assay type: in vivo
Conditions: oral administration of immediate release composition
Source text: The pharmaceutical compositions useful in the practice of the invention are for oral administration and are “immediate release” dosage forms. That is, the pharmaceutical compositions useful in the practice of the invention have neither the pharmacokinetic nor physical characteristics of extended release pharmaceutical dosage forms. […]
measurement.label: half-life

>  <given.smiles>
Cc1ccc(Nc2c(F)cccc2Cl)c(CC(=O)O)c1

>  <measurement.label>
half-life

>  <readout.value>
3 to 6 h

$$$$
